Reported pEC50 by item:
Biological target: Peroxisome proliferator-activated receptor gamma (Homo sapiens, UniProt P37231)
Sequence (P37231 whole entry): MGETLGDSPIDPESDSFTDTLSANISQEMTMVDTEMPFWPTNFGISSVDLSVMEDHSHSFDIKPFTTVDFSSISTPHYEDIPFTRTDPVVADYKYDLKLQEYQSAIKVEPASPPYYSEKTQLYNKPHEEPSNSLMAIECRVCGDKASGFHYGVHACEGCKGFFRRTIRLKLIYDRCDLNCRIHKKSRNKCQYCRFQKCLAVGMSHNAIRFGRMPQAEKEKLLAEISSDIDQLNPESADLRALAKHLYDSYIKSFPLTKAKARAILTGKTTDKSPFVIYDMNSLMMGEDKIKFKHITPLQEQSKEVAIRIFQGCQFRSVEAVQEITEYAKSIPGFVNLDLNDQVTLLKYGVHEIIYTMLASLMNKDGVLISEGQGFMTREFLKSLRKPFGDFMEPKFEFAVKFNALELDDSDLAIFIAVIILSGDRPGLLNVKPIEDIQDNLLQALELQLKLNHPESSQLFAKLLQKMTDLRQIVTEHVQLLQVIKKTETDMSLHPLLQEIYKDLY
Assay: Agonist activity at human PPARgamma expressed in mouse NIH/3T3 cells assessed as receptor activation after 16 hrs by luciferase based reporter gene assay
pEC50: −log10 of the molar value.

| compound | result-operator | pEC50 |
| --- | --- | --- |
| C/C(=C\CC/C(C)=C/Cc1occc1C)CC/C=C(\C)C(=O)O [SAURUFURAN B] | < | 4.00 |
| C/C(=C/CC/C(C)=C/CC/C(C)=C/Cc1occc1C)C(=O)O [SAURUFURAN A] | = | 4.78 |
